Experiment: NCI Yeast Anticancer Drug Screen. Data for the cln2 rad14 strain (AID 165)
Settings: S. cerevisiae cln2 rad14 strain, at 50.0 µM
Compounds without any hit were thinned out: in the full panel of roughly 79,000, 15% have a hit. Active and inactive are the calls of the source. Cut-off read from the data, not from the text of the source: active = growth inhibition above about 70%; inactive = the rest.
Pick one and only one: active, inactive

# fetch the recorded call for O.O.O=C(O)C(O)C(O)C(OC1OC(CO)C(O)C(O)C1O)C(O)CO.O=C(O)C(O)C(O)C(OC1OC(CO)C(O)C(O)C1O)C(O)CO.[NH-]C1CCCCC1[NH-].[Pt+2] (stereo not given) here
active

# fetch the recorded call for CC1CC(C)C(C)C(CO)C1 (stereo not given) here
inactive

# fetch the recorded call for CNC(=O)OC(C)CN1c2ccccc2Sc2ccc(Cl)cc21 (stereo not given) here
active

# fetch the recorded call for C=C1C(=O)OC2C/C(C)=C/CC/C(C)=C/CCC3(COC(C)=O)OC3CC12 (stereo not given) here
active

# fetch the recorded call for "O=Nc1c(-c2cccc([N+](=O)[O-])c2)nc2cnccn12" here
active

# fetch the recorded call for "Cc1cc2nc(CS)[nH]c2cc1C" here
inactive

# fetch the recorded call for "CN(C)c1cc2nc3ccccc3nc2cc1O" here
inactive

# fetch the recorded call for C/C=C(\C)C(=O)O[C@@H]1CC(C)(C)CC2C3=CCC4[C@]56CC[C@](O)(OC5)C(C)(C)C6CC[C@@]4(C)C3(C)CC[C@]21C(=O)O (stereo not given in full) here
active

# fetch the recorded call for "O=S(=O)(Nc1ccc2ccccc2c1)c1ccccc1" here
active

# fetch the recorded call for "N#Cc1snc2sc(=O)sc12" here
active
